# System: SF-268
# protocol: Cytotoxicity against human SF268 cells after 48 hrs by trypan blue dye exclusion assay
# Format: functional
# assay_setup: SF-268, 48 h
observed_property: GI50 (nM)
Write the number in nM without appending the unit.

Return reported GI50. Input compound: COc1ccc2c(c1)C(c1cc(OC)c3c(c1)OCO3)C1=C(COC1=O)N2 (stereo not drawn)
805

Return reported GI50. Input compound: COc1ccc2c(c1)OC1=C(C(=O)OC1)C2c1cc(OC)c2c(c1)OCO2 (stereo not drawn)
78

Return reported GI50. Input compound: `COc1cc([C@H]2C3=C(COC3=O)Nc3cc4c(cc32)OCO4)cc2c1OCO2`
108

Return reported GI50. Input compound: COc1ccc2c(c1)OC1=C(C(=O)OC1)C2c1cc(OC)c2c(c1)OCCO2 (stereo not drawn)
85.1

Return reported GI50. Input compound: COc1ccc2c(c1)OC1=C(C(=O)OC1)C2c1cc(OC)c(OC)c(OC)c1 (stereo not drawn)
731

Kindly review the next compound as well.
Return reported GI50. Input compound: COc1cc([C@@H]2c3cc4c(cc3[C@H](O)[C@H]3COC(=O)[C@H]23)OCO4)cc(OC)c1OC [PODOFILOX]
10
